Every entry's value here was drawn from ChEMBL document CHEMBL3272175.

# procedure_summary: Dissociation constant, pKa of the compound
# Assay type: physicochemical
For each entry below, report its pKa value.
One number for each entry.

- Cn1ccc(=N)c2ccccc21: 12.4

Consider the record given below.
Item "Cn1ccc(=N)cc1" : provide pKa
12.5
